Listing of recorded pKi by entry.
# measurement target: XIAP BIR3 domain (Homo sapiens)
# Construct: fluorescent probe 4 and the XIAP BIR3 domain (Sino Biological, Beijing, China) were used for all measurements
# Sequence (P98170 252-356 limits assumed): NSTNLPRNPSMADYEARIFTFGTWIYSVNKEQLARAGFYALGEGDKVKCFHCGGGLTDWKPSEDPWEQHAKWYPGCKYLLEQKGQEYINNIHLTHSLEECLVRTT
# protocol summary: Fluorescence polarization inhibition (competition) assay
# details: XIAP BIR3 50 nM, fluorescent probe 4 2 nM
pKi: −log10 of the molar value.
readout label: pKi

[[record]]
compound = "CN[C@@H](C)C(=O)N[C@H](C(=O)N1CCC[C@H]1C(=O)NCP(=O)(c1ccc(C)cc1)c1ccc(C)cc1)C1CCCCC1"
measurement_target = "XIAP BIR3 domain (Homo sapiens)"
readout_label = "pKi"
experimental_value = 4.70

[[record]]
compound = "CN[C@@H](C)C(=O)N[C@H](C(=O)N1CCC[C@H]1C(=O)NCP(=O)(c1cc(C)cc(C)c1)c1cc(C)cc(C)c1)C1CCCCC1"
measurement_target = "XIAP BIR3 domain (Homo sapiens)"
readout_label = "pKi"
experimental_value = 4.95

[[record]]
compound = "CN[C@@H](C)C(=O)N[C@H](C(=O)N1CCC[C@H]1C(=O)NC(CCSC)P(=O)(Oc1ccccc1)Oc1ccccc1)C1CCCCC1 (some centres unmarked)"
measurement_target = "XIAP BIR3 domain (Homo sapiens)"
readout_label = "pKi"
experimental_value = 4.88

[[record]]
compound = "CN[C@@H](C)C(=O)N[C@H](C(=O)N1CCC[C@H]1C(=O)NCP(=O)(c1ccccc1C)c1ccccc1C)C1CCCCC1"
measurement_target = "XIAP BIR3 domain (Homo sapiens)"
readout_label = "pKi"
experimental_value = 4.86

[[record]]
compound = "CCC(NC(=O)[C@@H]1CCCN1C(=O)[C@@H](NC(=O)[C@H](C)NC)C1CCCCC1)P(=O)(Oc1ccccc1)Oc1ccccc1 (some centres unmarked)"
measurement_target = "XIAP BIR3 domain (Homo sapiens)"
readout_label = "pKi"
experimental_value = 4.92

